Test system: Cavia porcellus
TEST DESCRIPTION: Effective dose in vivo for cardiac refractoriness (ERP) using paced guinea pig model
Assay type: functional
MEASURED ENDPOINT: ED20 (mg/kg)

INSERT INTO results (molecule, measured_endpoint, result_unit, numeric_value) VALUES
  ('CCN(CC)CCNC1=NC(c2ccccc2)c2ccccc2CN1C.O=C(O)/C=C/C(=O)O (configuration not stated)', 'ED20', 'mg/kg', 0.7),
  ('CN1Cc2ccccc2C(c2ccccc2)N=C1CCCc1ccccc1.Cl (configuration not stated)', 'ED20', 'mg/kg', 0.2),
  ('CN1Cc2ccccc2C(c2ccccc2)N=C1N1CCOCC1.Cl (configuration not stated)', 'ED20', 'mg/kg', 0.6),
  ('CCCCCCCCC1=NC(c2ccccc2)c2ccccc2CN1C.Cl (configuration not stated)', 'ED20', 'mg/kg', 0.2),
  ('CC1=NC(C)(c2ccccc2)c2ccccc2CN1C.O=C(O)/C=C/C(=O)O (configuration not stated)', 'ED20', 'mg/kg', 0.8),
  ('CN1Cc2ccccc2C(C)(c2ccccc2)N=C1CN1CCOCC1 (configuration not stated)', 'ED20', 'mg/kg', 2.4),
  ('COc1ccc(C(=O)Nc2ccccc2CCC2CCCCN2C)cc1 (configuration not stated) [ENCAINIDE]', 'ED20', 'mg/kg', 0.7);
